pIC50: −log10 of the molar value. Square brackets hold non-standard residues; d marks the D form. Peptide text beside a SMILES is read from it. pY = N[C@@H](Cc1ccc(OP(=O)(O)O)cc1)C(=O)O
# pIC50 per entry for Growth factor receptor-bound protein 2 (Homo sapiens)
Parameter: pIC50

a: CC(=O)N[C@@H](Cc1ccc(OP(=O)(O)O)cc1)C(=O)N[C@@H](CCC(N)=O)C(=O)N[C@@H](CC(N)=O)C(N)=O (Ac-[pY]-Gln-Asn-NH2)
b: CC(=O)N[C@@H](Cc1ccc(OP(=O)(O)O)cc1)C(=O)NCC(=O)N[C@@H](CC(N)=O)C(N)=O (Ac-[pY]-Gly-Asn-NH2)
Lab notebook, comparison: a versus b , higher pIC50 goes to which? When you have decided, please share the label of that item. a
